Biological target: T1, Recombinant biotinylated human P-Selectin protein (human, UniProt P16109 42-771, limits assumed, biotinylated (site not stated))
T1 sequence (looked up): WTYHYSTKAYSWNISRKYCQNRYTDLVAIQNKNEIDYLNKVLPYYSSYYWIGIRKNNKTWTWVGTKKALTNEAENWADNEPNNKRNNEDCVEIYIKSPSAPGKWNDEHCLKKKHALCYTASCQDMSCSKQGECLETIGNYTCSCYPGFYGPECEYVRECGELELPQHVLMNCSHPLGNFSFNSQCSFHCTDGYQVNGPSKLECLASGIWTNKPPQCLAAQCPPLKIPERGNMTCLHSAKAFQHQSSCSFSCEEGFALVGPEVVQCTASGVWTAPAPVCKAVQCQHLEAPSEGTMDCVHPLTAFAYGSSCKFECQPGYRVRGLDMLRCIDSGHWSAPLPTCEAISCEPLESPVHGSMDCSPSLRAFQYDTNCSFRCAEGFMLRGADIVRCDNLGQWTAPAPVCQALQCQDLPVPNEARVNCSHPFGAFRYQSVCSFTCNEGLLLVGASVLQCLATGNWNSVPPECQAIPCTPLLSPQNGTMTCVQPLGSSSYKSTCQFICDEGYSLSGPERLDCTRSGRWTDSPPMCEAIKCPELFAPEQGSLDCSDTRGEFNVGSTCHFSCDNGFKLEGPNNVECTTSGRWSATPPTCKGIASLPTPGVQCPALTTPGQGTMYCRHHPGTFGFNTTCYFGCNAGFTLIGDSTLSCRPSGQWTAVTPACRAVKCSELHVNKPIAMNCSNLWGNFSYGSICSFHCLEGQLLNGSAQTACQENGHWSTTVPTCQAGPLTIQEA
Test: inhibition of 5 nM P-selectin binding to HL-60 cells (PSGL1), mirrorball cytometer, geomean of n=3
Protocol: Bicycle test samples, SelG1 (Crizanlizumab) were serially diluted maintaining 0.5% DMSO in assay buffer (25 mM HEPES, 121 mM NaCl, 5.4 mM KCl, 0.8 mM MgCl₂, 1.8 mM CaCl₂), 6 mM NaHCO₂, 5.5 mM glucose, 1% BSA, pH7.4) and transferred to 384 well clear bottom plates (Corning, 3712) with a final volume of 6 μL. […] Data was analysed in Dotmatics, using a four parameter logistic fit to generate IC50 values and % response. Percent inhibition was calculated using 100−% response at top concentration.
pIC50: −log10 of the molar value. Starred links: 1 amine or outer side, 2 acyl side, 3 side chain; linkers in the order of their positions; H or OH if unused. Positions of bridges follow the written chain, without caps; N, C: chain ends. Non-standard residues stand in square brackets, D forms with d. Primed or numbered codes have the meaning given here. No end group written: not given here. TCAZ″ = 1,1',1''-(1,4,7-triazonane-1,4,7-triyl)tris(2-chloroethan-1-one) scaffold, O=C(C[*:1])N1CCN(C(=O)C[*:2])CCN(C(=O)C[*:3])CC1; TCAZ = 1,1',1''-(1,4,7-triazonane-1,4,7-triyl)tris(2-chloroethan-1-one); TATA = O=C(CC[*:1])N1CN(C(=O)CC[*:2])CN(C(=O)CC[*:3])C1; 1Nal = N[C@@H](Cc1cccc2ccccc12)C(=O)O
assay-metric: pIC50

binder="Ac-CYMEWCDVTDYGC-NH2 (linker 1-6-13 via TATA, Monomeric bicyclic peptide; also called BCY09717) [BCY9717]" test_result="< 4.96"
binder="ACDAD[1Nal]CDVPSLPCA-NH2 (linker 2-7-14 via TCAZ, Monomeric bicyclic peptide) [BCY12027]" test_result="< 7.43"
binder="ACDADWCDVPSLPCA-NH2 (linker 2-7-14 via TCAZ″, Monomeric bicyclic peptide) [BCY11648]" test_result="< 6.93"
binder="Ac-ACYME[1Nal]CDVTDYGCA-NH2 (linker 2-7-14 via TATA, Monomeric bicyclic peptide) [BCY11279]" test_result="< 5.45"
binder="SelG1 (Crizanlizumab) (antibody, V domains shown) VH: QVQLVQSGAEVKKPGASVKVSCKVSGYTFTSYDINWVRQAPGKGLEWMGWIYPGDGSIKYNEKFKGRVTMTVDKSTDTAYMELSSLRSEDTAVYYCARRGEYGNYEGAMDYWGQGTLVTVSS VL: DIQMTQSPSSLSASVGDRVTITCKASQSVDYDGHSYMNWYQQKPGKAPKLLIYAASNLESGVPSRFSGSGSGTDFTLTISSLQPEDFATYYCQQSDENPLTFGGGTKVEIK" test_result=8.32
